# measurementDescription: Stability in simulated intestinal fluid (SIF)
# conditionLabel: relative stability compared with SIF stability of oxytocin (8±1 min); SIF pH 6.8, pancreatin, 37° C.
*1 amine or outer side, *2 acyl side, *3 side chain or, on linkers, in order; H or OH if unused. Where a SMILES comes first, the peptide text is derived from it. Bridges are numbered along the chain shown (N, C = ends). [ ]: non-standard residue; d: D form. The star is where a group is joined. αMeY = C[C@](N)(Cc1ccc(O)cc1)C(=O)O; Gly(cPent) = N[C@H](C(=O)O)C1CCCC1; αMeV = CC(C)[C@](C)(N)C(=O)O; Thz = O=C(O)[C@@H]1CSCN1; X1 = O=C(CCC[*:2])[*:1]; Dap = NC[C@H](N)C(=O)O; Piv = CC(C)(C)C(=O)*
Below, each entry is listed alongside its reported SIF stability [fold OT].
measuredEndpoint: SIF stability [fold OT]

- compound: "CC(=O)NCCCC[C@H](NC(=O)[C@@H]1CSCN1C(=O)[C@@H]1CSCCCC(=O)N[C@@](C)(Cc2ccc(O)cc2)C(=O)N[C@@H](C2CCCC2)C(=O)N[C@@H](CCC(N)=O)C(=O)N[C@@H](CC(N)=O)C(=O)N1)C(=O)NCC(N)=O [Compound 18] ([αMeY][Gly(cPent)]QNC[Thz]K(Ac)G-NH2; linker N-5 via X1)"
  measuredEndpoint: "SIF stability [fold OT]"
  assayValue: ">100 fold OT"
- compound: "CC[C@H](C)[C@@H]1NC(=O)[C@H](Cc2ccc(O)cc2)NC(=O)[C@@H](N)CSSC[C@@H](C(=O)N2CCC[C@H]2C(=O)N[C@@](C)(CC(C)C)C(=O)NCC(N)=O)NC(=O)[C@H](CC(N)=O)NC(=O)[C@H](CCC(N)=O)NC1=O"
  measuredEndpoint: "SIF stability [fold OT]"
  assayValue: "10-100 fold OT"
- compound: "CC[C@H](C)[C@@H]1NC(=O)[C@H](Cc2ccc(OC)cc2)NC(=O)CCCSC[C@@H](C(=O)N2CCC[C@H]2C(=O)N[C@@H](CNC(=O)C(C)(C)C)C(=O)NCC(N)=O)NC(=O)[C@H](CC(N)=O)NC(=O)[C@H](CCC(N)=O)NC1=O [Compound 13] (Y(Me)IQNCP[Dap](Piv)G-NH2; linker N-5 via X1)"
  measuredEndpoint: "SIF stability [fold OT]"
  assayValue: "> 100 fold OT"
- compound: "CC[C@H](C)[C@@H]1NC(=O)[C@](C)(Cc2ccc(O)cc2)NC(=O)CCCSC[C@@H](C(=O)N2CCC[C@H]2C(=O)N[C@@H](CCCCNC(C)=O)C(=O)NCC(N)=O)NC(=O)[C@H](CC(N)=O)NC(=O)[C@H](CCC(N)=O)NC1=O [Compound 16] ([αMeY]IQNCPK(Ac)G-NH2; linker N-5 via X1)"
  measuredEndpoint: "SIF stability [fold OT]"
  assayValue: ">100 fold OT"
- compound: "CC[C@H](C)[C@@H]1NC(=O)[C@](C)(Cc2ccccc2)NC(=O)CCCSC[C@@H](C(=O)N2CCC[C@H]2C(=O)N[C@@H](CNC(C)=O)C(=O)NCC(N)=O)NC(=O)[C@H](CC(N)=O)NC(=O)[C@H](CCC(N)=O)NC1=O"
  measuredEndpoint: "SIF stability [fold OT]"
  assayValue: ">100 fold OT"
- compound: "CC[C@H](C)[C@@H]1NC(=O)[C@H](Cc2ccc(O)cc2)NC(=O)[C@@H](N)CSSC[C@@H](C(=O)N2CCC[C@H]2C(=O)N[C@@H](CCCCNC(C)=O)C(=O)NCC(N)=O)NC(=O)[C@H](CC(N)=O)NC(=O)[C@H](CCC(N)=O)NC1=O"
  measuredEndpoint: "SIF stability [fold OT]"
  assayValue: "10-100 fold OT"
- compound: "CC[C@H](C)[C@@H]1NC(=O)[C@H](Cc2ccc(O)cc2)NC(=O)[C@@H](N)CSSC[C@@H](C(=O)N2CCC[C@H]2C(=O)N[C@@H](CNC(C)=O)C(=O)NCC(N)=O)NC(=O)[C@H](CC(N)=O)NC(=O)[C@H](CCC(N)=O)NC1=O"
  measuredEndpoint: "SIF stability [fold OT]"
  assayValue: "10-100 fold OT"
- compound: "CC[C@H](C)[C@@H]1NC(=O)[C@H](Cc2ccc(C(F)(F)F)cc2)NC(=O)CCCSC[C@@H](C(=O)N2CCC[C@H]2C(=O)N[C@@H](CNC(C)=O)C(=O)NCC(N)=O)NC(=O)[C@H](CC(N)=O)NC(=O)[C@H](CCC(N)=O)NC1=O"
  measuredEndpoint: "SIF stability [fold OT]"
  assayValue: ">100 fold OT"
- compound: "CC[C@H](C)[C@@H]1NC(=O)[C@H](Cc2ccc(OC)cc2)NC(=O)CCCSC[C@@H](C(=O)N2CSC[C@H]2C(=O)N[C@@H](CCCCNC(C)=O)C(=O)NCC(N)=O)NC(=O)[C@H](CC(N)=O)NC(=O)[C@H](CCC(N)=O)NC1=O [Compound 22] (Y(Me)IQNC[Thz]K(Ac)G-NH2; linker N-5 via X1)"
  measuredEndpoint: "SIF stability [fold OT]"
  assayValue: ">100 fold OT"
- compound: "CC(=O)NCCCC[C@H](NC(=O)[C@@H]1CSCN1C(=O)[C@@H]1CSCCCC(=O)N[C@@H](Cc2ccc(O)cc2)C(=O)N[C@@](C)(C(C)C)C(=O)N[C@@H](CCC(N)=O)C(=O)N[C@@H](CC(N)=O)C(=O)N1)C(=O)NCC(N)=O [Compound 20] (Y[αMeV]QNC[Thz]K(Ac)G-NH2; linker N-5 via X1)"
  measuredEndpoint: "SIF stability [fold OT]"
  assayValue: "> 100 fold OT"
- compound: "COc1ccc(C[C@@H]2NC(=O)CCCSC[C@@H](C(=O)N3CCC[C@H]3C(=O)N[C@@H](CNC(C)=O)C(=O)NCC(N)=O)NC(=O)[C@H](CC(N)=O)NC(=O)[C@H](CCC(N)=O)NC(=O)[C@H](C3CCCC3)NC2=O)cc1 [Compound 14] (Y(Me)[Gly(cPent)]QNCP[Dap](Ac)G-NH2; linker N-5 via X1)"
  measuredEndpoint: "SIF stability [fold OT]"
  assayValue: ">100 fold OT"
- compound: "COc1ccc(C[C@@H]2NC(=O)CCCSC[C@@H](C(=O)N3CSC[C@H]3C(=O)N[C@@H](CCCCNC(C)=O)C(=O)NCC(N)=O)NC(=O)[C@H](CC(N)=O)NC(=O)[C@H](CCC(N)=O)NC(=O)[C@H](C3CCCC3)NC2=O)cc1 [Compound 23] (Y(Me)[Gly(cPent)]QNC[Thz]K(Ac)G-NH2; linker N-5 via X1)"
  measuredEndpoint: "SIF stability [fold OT]"
  assayValue: ">100 fold OT"
- compound: "CC[C@H](C)[C@@H]1NC(=O)[C@](C)(Cc2ccc(O)cc2)NC(=O)CCCSC[C@@H](C(=O)N2CCC[C@H]2C(=O)N[C@@H](CNC(C)=O)C(=O)NCC(N)=O)NC(=O)[C@H](CC(N)=O)NC(=O)[C@H](CCC(N)=O)NC1=O [Compound 9] ([αMeY]IQNCP[Dap](Ac)G-NH2; linker N-5 via X1)"
  measuredEndpoint: "SIF stability [fold OT]"
  assayValue: ">100 fold OT"
